assaySystem: E. coli RNA polymerase σ70 holoenzyme (Escherichia coli, UniProt P0A8T7+P0A8V2)
Sequence (P0A8V2 whole entry): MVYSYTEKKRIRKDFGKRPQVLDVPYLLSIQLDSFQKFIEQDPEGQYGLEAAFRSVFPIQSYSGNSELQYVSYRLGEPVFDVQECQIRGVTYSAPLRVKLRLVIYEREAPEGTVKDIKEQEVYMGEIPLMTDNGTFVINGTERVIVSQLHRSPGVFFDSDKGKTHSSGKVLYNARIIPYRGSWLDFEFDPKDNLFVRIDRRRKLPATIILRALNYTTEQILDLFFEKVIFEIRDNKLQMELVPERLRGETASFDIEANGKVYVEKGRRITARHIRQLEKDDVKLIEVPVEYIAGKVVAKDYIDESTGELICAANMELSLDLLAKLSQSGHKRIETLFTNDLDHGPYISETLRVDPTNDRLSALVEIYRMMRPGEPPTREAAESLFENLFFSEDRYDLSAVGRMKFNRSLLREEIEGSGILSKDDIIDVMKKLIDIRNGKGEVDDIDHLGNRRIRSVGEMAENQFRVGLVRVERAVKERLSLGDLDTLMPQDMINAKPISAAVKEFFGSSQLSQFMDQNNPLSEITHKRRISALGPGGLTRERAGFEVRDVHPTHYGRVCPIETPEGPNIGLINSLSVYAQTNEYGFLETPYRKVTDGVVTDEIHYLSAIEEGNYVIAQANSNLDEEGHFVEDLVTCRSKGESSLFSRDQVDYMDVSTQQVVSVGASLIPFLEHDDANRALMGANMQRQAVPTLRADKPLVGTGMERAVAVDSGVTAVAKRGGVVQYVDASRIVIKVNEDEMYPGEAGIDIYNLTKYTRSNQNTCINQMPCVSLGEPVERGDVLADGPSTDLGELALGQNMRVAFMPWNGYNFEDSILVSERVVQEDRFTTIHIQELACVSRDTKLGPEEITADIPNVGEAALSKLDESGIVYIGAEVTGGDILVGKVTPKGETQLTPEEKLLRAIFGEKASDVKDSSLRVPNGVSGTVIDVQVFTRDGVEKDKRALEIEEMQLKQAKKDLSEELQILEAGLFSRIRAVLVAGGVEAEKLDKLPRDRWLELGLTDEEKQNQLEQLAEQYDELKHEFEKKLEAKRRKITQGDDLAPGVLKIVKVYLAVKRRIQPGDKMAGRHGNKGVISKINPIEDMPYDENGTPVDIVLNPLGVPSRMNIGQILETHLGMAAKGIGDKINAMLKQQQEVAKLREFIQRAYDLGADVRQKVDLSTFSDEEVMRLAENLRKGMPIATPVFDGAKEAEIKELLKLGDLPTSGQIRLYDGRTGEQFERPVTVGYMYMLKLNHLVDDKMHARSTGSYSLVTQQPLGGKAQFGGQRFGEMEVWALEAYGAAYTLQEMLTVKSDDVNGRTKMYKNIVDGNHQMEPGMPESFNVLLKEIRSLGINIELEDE
Sequence (P0A8T7 whole entry): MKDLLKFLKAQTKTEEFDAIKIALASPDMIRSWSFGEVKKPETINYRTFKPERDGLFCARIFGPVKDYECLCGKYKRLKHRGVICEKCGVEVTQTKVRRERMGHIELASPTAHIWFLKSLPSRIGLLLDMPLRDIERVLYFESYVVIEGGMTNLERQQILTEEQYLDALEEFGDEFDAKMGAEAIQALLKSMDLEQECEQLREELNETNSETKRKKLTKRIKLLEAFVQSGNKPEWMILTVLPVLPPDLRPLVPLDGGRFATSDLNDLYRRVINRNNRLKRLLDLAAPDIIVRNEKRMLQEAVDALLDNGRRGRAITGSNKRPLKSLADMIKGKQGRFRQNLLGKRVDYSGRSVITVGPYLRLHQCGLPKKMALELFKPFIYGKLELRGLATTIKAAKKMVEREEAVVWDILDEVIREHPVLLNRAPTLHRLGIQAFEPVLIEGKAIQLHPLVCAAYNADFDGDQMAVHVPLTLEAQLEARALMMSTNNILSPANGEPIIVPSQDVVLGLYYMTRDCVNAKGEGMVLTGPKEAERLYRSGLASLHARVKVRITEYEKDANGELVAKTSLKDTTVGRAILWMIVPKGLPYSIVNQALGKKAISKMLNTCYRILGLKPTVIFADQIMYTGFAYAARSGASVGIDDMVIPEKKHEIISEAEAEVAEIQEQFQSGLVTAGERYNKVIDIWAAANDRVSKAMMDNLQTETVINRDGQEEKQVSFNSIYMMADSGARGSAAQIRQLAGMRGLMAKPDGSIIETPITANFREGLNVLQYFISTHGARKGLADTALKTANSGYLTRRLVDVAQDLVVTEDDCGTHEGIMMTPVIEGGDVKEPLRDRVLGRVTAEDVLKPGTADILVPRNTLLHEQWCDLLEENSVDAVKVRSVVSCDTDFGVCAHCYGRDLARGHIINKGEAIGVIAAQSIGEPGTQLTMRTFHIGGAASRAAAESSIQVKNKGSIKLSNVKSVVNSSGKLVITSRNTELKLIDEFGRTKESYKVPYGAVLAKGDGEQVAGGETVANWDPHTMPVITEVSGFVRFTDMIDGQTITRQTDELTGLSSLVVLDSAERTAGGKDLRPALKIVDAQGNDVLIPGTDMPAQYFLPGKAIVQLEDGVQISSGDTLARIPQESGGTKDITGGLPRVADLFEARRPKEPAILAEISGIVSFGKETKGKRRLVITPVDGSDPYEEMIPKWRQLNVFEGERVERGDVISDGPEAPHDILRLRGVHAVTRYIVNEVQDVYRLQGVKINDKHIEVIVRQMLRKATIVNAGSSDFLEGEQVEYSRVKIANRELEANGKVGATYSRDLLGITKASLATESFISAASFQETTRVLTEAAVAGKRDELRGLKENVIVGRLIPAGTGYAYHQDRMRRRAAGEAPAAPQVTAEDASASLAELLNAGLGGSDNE
Sequence (P0A7Z4 whole entry partner): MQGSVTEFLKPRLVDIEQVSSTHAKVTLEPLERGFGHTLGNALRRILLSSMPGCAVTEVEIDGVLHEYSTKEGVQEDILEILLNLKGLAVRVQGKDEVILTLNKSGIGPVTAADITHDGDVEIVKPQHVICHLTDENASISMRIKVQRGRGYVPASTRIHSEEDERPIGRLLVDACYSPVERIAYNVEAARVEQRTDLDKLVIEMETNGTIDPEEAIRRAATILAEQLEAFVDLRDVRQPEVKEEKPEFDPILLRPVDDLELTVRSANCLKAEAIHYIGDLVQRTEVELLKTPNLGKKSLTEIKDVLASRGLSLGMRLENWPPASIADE
Sequence (P0A800 whole entry partner): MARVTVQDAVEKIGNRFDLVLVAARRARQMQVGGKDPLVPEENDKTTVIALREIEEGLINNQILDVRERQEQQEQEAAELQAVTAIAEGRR
Sequence (P00579 whole entry partner): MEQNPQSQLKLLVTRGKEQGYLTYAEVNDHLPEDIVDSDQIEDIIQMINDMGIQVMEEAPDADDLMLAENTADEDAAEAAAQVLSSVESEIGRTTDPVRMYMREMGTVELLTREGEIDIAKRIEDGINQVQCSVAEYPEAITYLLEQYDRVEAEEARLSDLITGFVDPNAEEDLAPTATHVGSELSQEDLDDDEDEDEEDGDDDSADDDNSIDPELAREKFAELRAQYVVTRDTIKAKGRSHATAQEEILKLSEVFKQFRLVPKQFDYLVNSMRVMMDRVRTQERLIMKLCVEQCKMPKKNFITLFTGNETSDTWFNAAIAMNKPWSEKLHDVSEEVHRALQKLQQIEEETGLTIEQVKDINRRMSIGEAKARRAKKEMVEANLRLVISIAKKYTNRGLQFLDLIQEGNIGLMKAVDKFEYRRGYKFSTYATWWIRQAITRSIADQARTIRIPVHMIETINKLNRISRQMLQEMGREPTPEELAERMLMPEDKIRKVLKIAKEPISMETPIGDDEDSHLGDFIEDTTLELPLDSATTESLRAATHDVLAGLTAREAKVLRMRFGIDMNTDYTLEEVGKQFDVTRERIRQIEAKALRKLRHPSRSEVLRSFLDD
test: Fluorescence-detected RNA polymerase assay, E. coli RNA polymerase
assaySetup: RiboGreen fluorescence, read-out: IC50 E. coli RNAP
measuredEndpoint: pIC50
Answers are plain numbers, as −log10 of the molar value.

Given item CCCCCC1=CC(=O)C(C(=O)CCc2ccccc2)C(=O)O1 (stereo not shown) , the value recorded as its pIC50 is 4.43
